Organism: Rattus norvegicus
Assay: Open TG-GATES - Regimen: Daily Repeat
Format: toxicity, organism-based, Sprague-Dawley
Set-up: regimen Daily Repeat, gender Male, age 6 weeks
Details: in vivo, po, 1000 mg/kg, 72 h, tissue Blood, route gavage, dose level High, time 3 day
Form field: Ret (one value per entry).
Respond numerically; units are % and should not be typed.

Record excerpt, results attached:
CCN1CCCC1CNC(=O)c1cc(S(N)(=O)=O)ccc1OC (centres undefined) [SULPIRIDE]
4.8
CC(C)(S)[C@@H](N)C(=O)O
6.2
O=C(O)c1cccnc1
5.7

Moving on to another compound below.
// Ret lookup, key: O=C(N[C@H](CO)[C@H](O)c1ccc([N+](=O)[O-])cc1)C(Cl)Cl
2.3

* * *

Organism: Rattus norvegicus
Assay: Open TG-GATES - Regimen: Single
Assay type: toxicity, organism-based, Sprague-Dawley
Design: regimen Single, gender Male, age 6 weeks
Conditions: in vivo, po, 0 mg/kg, 3 h, route gavage, dose level Control
quantity.name: TERMINAL_BW (g)
Respond numerically; units are g and should not be typed.

CN1C(=O)OC(C)(C)C1=O [TRIMETHADIONE]
205.3

// TERMINAL_BW lookup, key: Nc1nc(N)c2nc(-c3ccccc3)c(N)nc2n1
212

Field entry: C[C@]12CCC(=O)C=C1CC[C@@H]1[C@@H]2CC[C@@]2(C)[C@H]1CC[C@]2(C)O [METHYLTESTOSTERONE]
202.4

Field entry: CC(C)C(=O)Nc1ccc([N+](=O)[O-])c(C(F)(F)F)c1 [FLUTAMIDE]
211.8

Field entry: CCc1oc2ccccc2c1C(=O)c1cc(I)c(O)c(I)c1 [BENZIODARONE]
211.5

Field entry: CC(=N)S [THIOACETAMIDE]
187.1

Field entry: CC(C)(S)[C@@H](N)C(=O)O [PENICILLAMINE]
202

Field entry: CCC(C)(C)C(=O)O[C@H]1C[C@@H](C)C=C2C=C[C@H](C)[C@H](CC[C@@H]3C[C@@H](O)CC(=O)O3)[C@H]21 [SIMVASTATIN]
203.4

Field entry: O=C(N[C@H](CO)[C@H](O)c1ccc([N+](=O)[O-])cc1)C(Cl)Cl [CHLORAMPHENICOL]
223.3

* * *

Form field: Neu (one value per entry).
Organism: Rattus norvegicus
Test: Open TG-GATES - Regimen: Daily Repeat
Assay type: toxicity, organism-based, Sprague-Dawley
Design: regimen Daily Repeat, gender Male, age 6 weeks
Details: in vivo, po, 1000 mg/kg, […], tissue Blood, route gavage, dose level High, time 28 day
Write your answer as a measured quantity: the number, then the unit.

Record excerpt, results attached:
CC(C)(S)[C@@H](N)C(=O)O
21.6%
O=C(N[C@H](CO)[C@H](O)c1ccc([N+](=O)[O-])cc1)C(Cl)Cl
9.2%
CCN1CCCC1CNC(=O)c1cc(S(N)(=O)=O)ccc1OC (centres undefined) [SULPIRIDE]
15%

// Neu lookup, key: O=C(O)c1cccnc1
18.2%

* * *

Form field: GLC (one value per entry).
Organism: Rattus norvegicus
Experiment: Open TG-GATES - Regimen: Single
Format: toxicity, organism-based, Sprague-Dawley
Design: regimen Single, gender Male, age 6 weeks
Conditions: in vivo, po, 0 mg/kg, 9 h, tissue Plasma, route gavage, dose level Control
Respond numerically; units are mg/dL and should not be typed.

Record excerpt, results attached:
Nc1nc(N)c2nc(-c3ccccc3)c(N)nc2n1
173.8
CN1C(=O)OC(C)(C)C1=O
176.6
O=C(N[C@H](CO)[C@H](O)c1ccc([N+](=O)[O-])cc1)C(Cl)Cl
192.6
O=C(O)c1cccnc1
185.4

// GLC lookup, key: CC(=O)Oc1cc(C(C)C)c(OCCN(C)C)cc1C
184.8

Field entry: C[C@]12CCC(=O)C=C1CC[C@@H]1[C@@H]2CC[C@@]2(C)[C@H]1CC[C@]2(C)O
171.4

* * *

Form field: TC (one value per entry).
Organism: Rattus norvegicus
Experiment: Open TG-GATES - Regimen: Daily Repeat
Assay type: toxicity, organism-based, Sprague-Dawley
Set-up: regimen Daily Repeat, gender Male, age 6 weeks
Conditions: in vivo, po, 1000 mg/kg, […], tissue Plasma, route gavage, dose level High, time 7 day
Respond numerically; units are mg/dL and should not be typed.

Record excerpt, results attached:
CC(C)(S)[C@@H](N)C(=O)O
86.8
CCN1CCCC1CNC(=O)c1cc(S(N)(=O)=O)ccc1OC (centres undefined) [SULPIRIDE]
72.6
O=C(N[C@H](CO)[C@H](O)c1ccc([N+](=O)[O-])cc1)C(Cl)Cl
67.8

Moving on to another molecule below.
// TC lookup, key: O=C(O)c1cccnc1
69.2

* * *

Organism: Rattus norvegicus
Test: Open TG-GATES - Regimen: Daily Repeat
Format: toxicity, organism-based, Sprague-Dawley
Set-up: regimen Daily Repeat, gender Male, age 6 weeks
Conditions: in vivo, po, 0 mg/kg, […], tissue Blood, route gavage, dose level Control, time 14 day
quantity.name: Fbg (mg/dL)
Respond numerically; units are mg/dL and should not be typed.

Record excerpt, results attached:
CC(=N)S [THIOACETAMIDE]
223.8
CCc1oc2ccccc2c1C(=O)c1cc(I)c(O)c(I)c1 [BENZIODARONE]
220.6
CCSCC[C@H](N)C(=O)O [ETHIONINE]
213.6
C#C[C@]1(O)CC[C@H]2[C@@H]3CCc4cc(O)ccc4[C@H]3CC[C@@]21C [ETHINYL ESTRADIOL]
279.4
Nc1nc(N)c2nc(-c3ccccc3)c(N)nc2n1
313.2
Oc1ncnc2[nH]ncc12 [ALLOPURINOL]
227
CC(C)C(=O)Nc1ccc([N+](=O)[O-])c(C(F)(F)F)c1 [FLUTAMIDE]
227
CN1C(=O)OC(C)(C)C1=O [TRIMETHADIONE]
284.6
C[C@]12CCC(=O)C=C1CC[C@@H]1[C@@H]2CC[C@@]2(C)[C@H]1CC[C@]2(C)O [METHYLTESTOSTERONE]
288.4
O=C(N[C@H](CO)[C@H](O)c1ccc([N+](=O)[O-])cc1)C(Cl)Cl [CHLORAMPHENICOL]
272

// Fbg lookup, key: CC(=O)Oc1cc(C(C)C)c(OCCN(C)C)cc1C [MOXISYLYTE]
308.2

Field entry: CCN1CCCC1CNC(=O)c1cc(S(N)(=O)=O)ccc1OC (stereo unspecified) [SULPIRIDE]
289

Field entry: CCC(C)(C)C(=O)O[C@H]1C[C@@H](C)C=C2C=C[C@H](C)[C@H](CC[C@@H]3C[C@@H](O)CC(=O)O3)[C@H]21 [SIMVASTATIN]
222.4

Field entry: CC(C)(S)[C@@H](N)C(=O)O [PENICILLAMINE]
292.4

Field entry: O=C(O)c1cccnc1 [NIACIN]
329

Field entry: C[C@](N)(Cc1ccc(O)c(O)c1)C(=O)O [METHYLDOPA]
290.4

* * *

Form field: Fbg (one value per entry).
Species: Rattus norvegicus
Assay: Open TG-GATES - Regimen: Daily Repeat
Format: toxicity, organism-based, Sprague-Dawley
Parameters: regimen Daily Repeat, gender Male, age 6 weeks
Conditions: in vivo, po, 300 mg/kg, […], tissue Blood, route gavage, dose level Middle, time 28 day
Respond numerically; units are mg/dL and should not be typed.

CC(C)(S)[C@@H](N)C(=O)O
485.2

// Fbg lookup, key: O=C(O)c1cccnc1
336.6

Field entry: CCN1CCCC1CNC(=O)c1cc(S(N)(=O)=O)ccc1OC (centres undefined) [SULPIRIDE]
265

Field entry: O=C(N[C@H](CO)[C@H](O)c1ccc([N+](=O)[O-])cc1)C(Cl)Cl
296.2

* * *

Species: Rattus norvegicus
Experiment: Open TG-GATES - Regimen: Daily Repeat
Type: toxicity, organism-based, Sprague-Dawley
Parameters: regimen Daily Repeat, gender Male, age 6 weeks
Settings: in vivo, po, 0 mg/kg, […], tissue Blood, route gavage, dose level Control, time 14 day
One threshold, 20 s, splits the recorded APTT values: lower ones are condition met, equal or higher ones are condition not met.

CC(=O)Oc1cc(C(C)C)c(OCCN(C)C)cc1C
condition not met
CC(C)C(=O)Nc1ccc([N+](=O)[O-])c(C(F)(F)F)c1 [FLUTAMIDE]
condition not met
Nc1nc(N)c2nc(-c3ccccc3)c(N)nc2n1
condition met
O=C(N[C@H](CO)[C@H](O)c1ccc([N+](=O)[O-])cc1)C(Cl)Cl
condition met
C[C@](N)(Cc1ccc(O)c(O)c1)C(=O)O
condition met

Please state whether APTT is below 20 s for CCN1CCCC1CNC(=O)c1cc(S(N)(=O)=O)ccc1OC (stereo not given) [SULPIRIDE]
condition met
